The measured values listed here are drawn from patent US20250205324A1.

- TARGET_OR_TEST_SYSTEM: T1, HLA-A*0201 molecule expressed on human T2 cells (human)
- T1 construct: surface HLA-A2 detected with anti-HLA-A2-PE (clone REA517); also called HLA-A2
- PROTOCOL_DESCRIPTION: T2 cell HLA-A*0201 binding assay, anti-HLA-A2-PE flow cytometry
Quick list: mean relative fluorescence intensity at 1 µM peptide per entry.

Observe how each entry below is paired with its result.
ILLSIQSLL [UBE2C-H2] | 8.5 % of HIV pol reference peptide
YLYDVRTAL (also called ENT168_B2) [UBE2C-B11] | 22.2 % of HIV pol reference peptide
ALYDVRTILL (also called UBEC2-H11; ENT168-HL) [UBE2C-H11] | -2.3 % of HIV pol reference peptide
AVIGIVAAV (also called ENT190_B1) [OR51E2-B1] | 25.4 % of HIV pol reference peptide
LVIGIILAV (also called ENT176-H) [CDH17-H1] | 3.7 % of HIV pol reference peptide

Now take the following binder into account.
mean relative fluorescence intensity at 1 µM peptide for VMNPELLLL (also called ENT207_B3) [KIF2C-B12] is 41.4 % of HIV pol reference peptide
